procedure-details: soluble on expression in E. coli; label from the status in PepcDB or PDB records
measured-metric: soluble on expression in E. coli

Here is how some sequences turned out for soluble on expression in E. coli.
query_sequence=MSLKLVKLETFSTEFVCFVRATAEDGAQGWGQVAPYYADITAQVLHRQVAPYALGMACEDIDAMLDIVRDREHKFPGSYLRRAMGGVDTALWDMHGRRAGKPVCVLIGGTPGPVRAYGSSMKRDITPRDEAARLVRLRDEQGFDAFKFRIGAEVGRDRDEWPGRTEEIVPTMRRAMGDDVALLVDANSCYSPARAIEVGRMLEQHGISHYEEPCPYWEFAQTKEVTDTLDLDITGGEQDCLMERWQTMIADRVVDVLQPDICYLGGLSRTLRVARMAEAAGMPITPHAANLSMVTLFTMHLLRAIPNAGKYLEFSIEGLDYYPWQQGLFTSDPYRIEEGHATVTDAPGWGVDVNPDWLARSEGHHHHHH result="not soluble"
query_sequence=MPWKCYRDYNLESQILKYRTTADVIMKSMYKLEIESLKRELAEYRRGNNGSHSDCKYYDEEAREEVS result="not soluble"
query_sequence=MLEIKGLRARIVGTNTEVIRGLNLTVADGEVAAIMGQNGAGKSTLSYLLAGRDDYEVIDGDILYNGQSLLEMDPAERAAYGVFLAFQYPMEIPGVATMEFLKVAMNSQRKARGDQELKIPEFIKCVKEISSKLEINMDMLKRPLNVGFSGGEKKRAEILQMALLEPKLCILDETDSGLDIDALKIVADGVNKLRDPKRSFLVITHYQRLLNYIIPDTVHVLYKGRIIKSGDKSLALYLEQNGYADLIREAA result="not soluble"
query_sequence=EEFPFALGVQTLPQTCDEPKAHTSFQISLSVSYTGSRSASNMAIVDVKMVSGFIPLKPTVKMLERSNHVSRTEVSSNHVLIYLDKVSNQTLSLFFTVLQDVPVRDLKPAIVKVYDYYETDEFAIAEYNAPCSKDLGNA result=soluble
query_sequence=MSEKDQSVNNTEEDFNVETEDNQNDTNIENSVSNTDNSEANASDSENNSEESIKDEESESQDTKIKELEKLANDNEEKYLRLYAEFENYKRRIQKENQINATYKAQGVLTDILPSIDNIERALQIEGDDESFKSLQKGVQMVHESLLRALKDNGLEEILAEGKEFDPNLHQAVVQDDNPDFKSGEVTQELQKGYKLKDRVLRPSMVKVNQ result=soluble
query_sequence=MGSDKIHHHHHHMRDLLNDLSEGLSHPDPILRAQIQMQKPLPKRFYKDVTVADVEEGGFTILLDGKPLRTPAKKPLVAPSRALADLLRDEWDAQKEVVNPVVMPVSRHVNTAIDGIASDTQAVFEDILRFSSSDLLCYRAGDPEALVARQTDYWDPVLDWATNVLGARFILVEGVMHRDQPREAIAAFAVTLKKYDTPIALAALHTMTSLTGSAILALALAEGELTLEEAWALAHLDEDWTAEQWGEDEEALERRAVRLIDMRAALNVLESLKSAS result="not soluble"

Lab note: next sequence to report on.
Form field soluble on expression in E. coli, entry `MMKKFIAPLLALLVSGCQIDPYTHAPTLTSTDWYDVGMEDAISGSAIKDDDAFSDSQADRGLYLKGYAEGQKKTCQTDFTYARGLSGKSFPASCNNVENASQLHEVWQKGADENASTIRLN` : soluble
